- Assay system: Voltage-gated inwardly rectifying potassium channel KCNH2 (Homo sapiens)
- Sequence (Q12809 whole entry): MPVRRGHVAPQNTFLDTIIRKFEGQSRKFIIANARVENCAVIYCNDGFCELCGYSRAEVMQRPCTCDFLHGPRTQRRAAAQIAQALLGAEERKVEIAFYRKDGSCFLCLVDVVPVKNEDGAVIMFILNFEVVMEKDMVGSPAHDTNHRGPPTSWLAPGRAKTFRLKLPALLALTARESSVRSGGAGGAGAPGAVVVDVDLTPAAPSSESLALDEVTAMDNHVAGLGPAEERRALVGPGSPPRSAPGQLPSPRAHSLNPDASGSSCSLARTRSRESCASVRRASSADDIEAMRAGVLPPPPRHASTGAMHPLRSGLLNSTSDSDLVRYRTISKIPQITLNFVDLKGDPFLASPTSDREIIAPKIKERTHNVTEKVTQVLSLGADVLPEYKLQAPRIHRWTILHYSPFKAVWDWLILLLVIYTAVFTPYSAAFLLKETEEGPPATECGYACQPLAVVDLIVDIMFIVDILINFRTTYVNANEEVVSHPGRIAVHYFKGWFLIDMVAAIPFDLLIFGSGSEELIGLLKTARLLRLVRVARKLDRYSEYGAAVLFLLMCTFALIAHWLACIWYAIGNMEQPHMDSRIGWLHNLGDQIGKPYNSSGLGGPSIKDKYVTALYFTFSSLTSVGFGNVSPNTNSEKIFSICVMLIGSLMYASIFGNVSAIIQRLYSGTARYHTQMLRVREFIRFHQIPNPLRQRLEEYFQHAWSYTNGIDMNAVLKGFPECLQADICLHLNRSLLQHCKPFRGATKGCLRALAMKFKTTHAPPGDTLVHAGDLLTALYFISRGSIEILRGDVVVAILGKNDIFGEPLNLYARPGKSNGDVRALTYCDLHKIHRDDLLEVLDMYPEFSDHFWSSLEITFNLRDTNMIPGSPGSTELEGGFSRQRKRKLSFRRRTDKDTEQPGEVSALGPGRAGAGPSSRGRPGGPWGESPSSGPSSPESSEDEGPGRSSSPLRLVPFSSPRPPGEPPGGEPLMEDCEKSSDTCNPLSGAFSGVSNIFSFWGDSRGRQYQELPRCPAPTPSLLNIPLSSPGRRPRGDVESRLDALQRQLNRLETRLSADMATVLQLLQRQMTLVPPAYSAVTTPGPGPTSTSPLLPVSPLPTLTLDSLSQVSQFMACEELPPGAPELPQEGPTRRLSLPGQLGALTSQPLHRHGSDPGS
pIC50: −log10 of the molar value.

# Molecular string, pIC50
data = [
    ("Cc1c([C@@H](O)CN2CCC3(CC2)CCN(c2ccc(C(C)(C)O)nc2)C3)ccc2c1COC2=O", 4.54),
    ("Cc1c([C@@H](O)CN2CCC3(CC2)CC(=O)N(c2cncc(C#N)c2)C3)ccc2c1COC2=O", 5.74),
    ("Cc1c([C@@H](O)CN2CCC3(CC2)CC(=O)N(c2ccc(C#N)cn2)C3)ccc2c1COC2=O", 5.74),
    ("COc1ccc(N2CCC3(CCN(C[C@H](O)c4ccc5c(c4C)COC5=O)CC3)C2)cn1", 5.48),
    ("Cc1c([C@@H](O)CN2CCC3(CC2)CC(=O)N(c2ccc(S(C)(=O)=O)cn2)C3)ccc2c1COC2=O", 4.76),
]
